For each record, write down the corresponding Reactivity (%).
target: #651: VH-L2-VL CAR-T; assay: flow cytometry on CAR-T cells; PE-labeled secondary antibody; PE-positive cells / total cells
Numbers only, in %.

Example entries and their recorded answers appear below.
Recorded Reactivity (%) of 3A4-A10-7 (antibody, V domains shown) VH: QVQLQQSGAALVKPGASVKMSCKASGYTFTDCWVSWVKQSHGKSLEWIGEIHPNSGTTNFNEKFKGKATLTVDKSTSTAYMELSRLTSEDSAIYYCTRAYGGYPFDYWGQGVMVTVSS VL: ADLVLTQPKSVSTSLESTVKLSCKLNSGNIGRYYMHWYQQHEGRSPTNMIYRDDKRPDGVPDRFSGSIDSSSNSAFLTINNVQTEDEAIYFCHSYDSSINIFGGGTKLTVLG , please.
0.2

Recorded Reactivity (%) of 4B9-B11 (antibody, V domains shown) VH: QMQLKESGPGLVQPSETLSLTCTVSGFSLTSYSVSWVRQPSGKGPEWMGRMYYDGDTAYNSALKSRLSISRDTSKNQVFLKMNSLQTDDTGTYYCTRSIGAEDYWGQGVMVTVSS VL: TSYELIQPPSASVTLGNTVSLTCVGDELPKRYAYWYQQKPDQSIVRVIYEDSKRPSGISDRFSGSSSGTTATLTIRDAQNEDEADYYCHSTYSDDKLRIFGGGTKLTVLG , please.
0.2

Recorded Reactivity (%) of 2D12-B12 (antibody, V domains shown) VH: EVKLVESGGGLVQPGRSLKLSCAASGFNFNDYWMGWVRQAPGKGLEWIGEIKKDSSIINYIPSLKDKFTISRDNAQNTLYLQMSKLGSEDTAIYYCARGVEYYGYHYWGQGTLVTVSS VL: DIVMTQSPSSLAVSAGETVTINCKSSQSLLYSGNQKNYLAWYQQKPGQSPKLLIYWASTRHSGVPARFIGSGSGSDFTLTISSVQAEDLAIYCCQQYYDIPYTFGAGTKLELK , please.
0.4

---
Recorded Reactivity (%) of 3E7-C1 (antibody, V domains shown) VH: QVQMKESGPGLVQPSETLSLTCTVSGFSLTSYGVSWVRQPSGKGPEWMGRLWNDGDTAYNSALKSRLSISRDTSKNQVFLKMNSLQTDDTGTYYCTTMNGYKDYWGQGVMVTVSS VL: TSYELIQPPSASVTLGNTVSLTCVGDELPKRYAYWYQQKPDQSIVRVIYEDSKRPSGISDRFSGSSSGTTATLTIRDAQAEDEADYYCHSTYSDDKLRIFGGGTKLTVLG , please.
0.1
